This listing pairs compounds with measured pIC50.
tested on: MV4-11; test: Antiproliferative activity against human MV4-11 cells; assay type: functional, cell-based
pIC50: −log10 of the molar value.

Some solved cases for reference:
> print(dat)
                                smiles.repr  property  result
1  CCN(c1cc(/C=C/c2ccc(CN3C[C@H]4C[C@@H]3CO4)c(F)c2)cc(C(=O)NCc2c(C)c3c([nH]c2=O)CCCC3)c1C)C1CCOCC1     pIC50  < 4.52
2  CCN(c1cc(/C=C/c2ccc3c(c2)NC(=O)CO3)cc(C(=O)NCc2c3c(c(C)[nH]c2=O)CCCC3)c1C)C1CCOCC1     pIC50    5.34
3  CCN(c1cc(/C=C/c2ccc(N3CCOCC3)nc2)cc(C(=O)NCc2c(C)c3c([nH]c2=O)CCCC3)c1C)C1CCOCC1     pIC50  < 4.52

Continue with the next compound.
Returns the measured pIC50 for the input compound. Input: "CCN(c1cc(/C=C/c2ccc(N3CCOCC3)nc2)cc(C(=O)NCc2c3c(c(C)[nH]c2=O)CCCC3)c1C)C1CCOCC1"
< 4.52

###

test system: MV4-11; experiment: Antiproliferative activity against human MV4-11 cells; type: functional, cell-based
pIC50: −log10 of the molar value.
property: pIC50

Some solved cases for reference:
> print(dat)
                                smiles.repr  result
1  CCN(c1cc(/C=C/c2ccc(CN3C[C@@H](C)O[C@@H](C)C3)cc2)cc(C(=O)NCc2c3c(c(C)[nH]c2=O)CCCC3)c1C)C1CCOCC1  < 4.52
2  CCN(c1cc(-c2ccc(CN3CCN(C)CC3)cc2)cc(C(=O)NCc2c3c(c(C)[nH]c2=O)CCCC3)c1C)C1CCOCC1  < 4.52
3  CCN(c1cc(/C=C/c2ccc(CN3CCN(C)CC3)cc2)cc(C(=O)NCc2c3c(c(C)[nH]c2=O)CCCC3)c1C)C1CCOCC1  < 4.52
4  CCN(c1cc(/C=C/c2ccc(CN3CCOCC3)cc2)cc(C(=O)NCc2c(C)c3c([nH]c2=O)CCCC3)c1C)C1CCOCC1  < 4.52

Continue with the next molecule.
Returns the measured pIC50 for the input molecule. Input: "CCN(c1cc(/C=C/c2ccc(CN3C[C@H]4C[C@@H]3CO4)c(F)c2)cc(C(=O)NCc2c3c(c(C)[nH]c2=O)CCCC3)c1C)C1CCOCC1"
< 4.52

###

This listing pairs compounds with measured pIC50.
test: Antiproliferative activity against over expressing […] human WSU-DLCL2 cells; assay type: functional; conditions: WSUDLCL2
Friendly reminder that pIC50 comes from taking -log10 of the concentration in mol/L.

> print(dat)
                                smiles.repr  recorded.number
1  CCN(c1cc(/C=C/c2ccc(CN3C[C@@H](C)O[C@@H](C)C3)c(F)c2)cc(C(=O)NCc2c3c(c(C)[nH]c2=O)CCCC3)c1C)C1CCOCC1             4.56

Returns the measured pIC50 for the input compound. Input: "CCN(c1cc(/C=C/c2ccc(/C=C/C(=O)OC)cc2)cc(C(=O)NCc2c3c(c(C)[nH]c2=O)CCCC3)c1C)C1CCOCC1"
4.67
